# System: CCRIS mutagenicity, Ames/micronucleus/aberration tests
# method.notes: CCRIS mutagenicity studies
# assay.conditions: Test System: AMES SALMONELLA TYPHIMURIUM; Strain/Indicator: TA100; Metabolic Activation: HAMSTER, LIVER, S-9, AROCLOR 1254; Method: STANDARD PLATE
Activity calls are given as the source filed them. No rule for the calls is given here.
Result category, one only: active, inactive

CCOc1ccc(NC(C)=O)cc1N | active

### Prompt I'd appreciate the recorded outcome for O=C(O)c1ccccn1 from this test.
### Response inactive

### Prompt I'd appreciate the recorded outcome for O=C(O)/C=C/c1ccccc1 from this test.
### Response inactive

### Prompt I'd appreciate the recorded outcome for O=C1c2ccccc2-c2ccccc21 from this test.
### Response inactive

### Prompt I'd appreciate the recorded outcome for O=C([O-])/C=C/C(=O)[O-].[Fe+2] from this test.
### Response inactive

### Prompt I'd appreciate the recorded outcome for O=c1[nH]c2ccccc2o1 from this test.
### Response inactive

### Prompt I'd appreciate the recorded outcome for O=C1C=CC(=O)N1 from this test.
### Response inactive

### Prompt I'd appreciate the recorded outcome for OC/C=C/c1ccccc1 from this test.
### Response inactive

### Prompt I'd appreciate the recorded outcome for O=C(CBr)c1ccccc1 from this test.
### Response inactive

### Prompt I'd appreciate the recorded outcome for N#CSCSC#N from this test.
### Response inactive

### Prompt I'd appreciate the recorded outcome for c1cnccn1 from this test.
### Response inactive

### Prompt I'd appreciate the recorded outcome for C/C=C/c1ccc(O)c(OC)c1 from this test.
### Response inactive

### Prompt I'd appreciate the recorded outcome for Cc1nnc(NS(=O)(=O)c2ccc(N)cc2)s1 from this test.
### Response inactive

### Prompt I'd appreciate the recorded outcome for CC(=O)c1ccc(S(=O)(=O)NC(=O)NC2CCCCC2)cc1 from this test.
### Response inactive

### Prompt I'd appreciate the recorded outcome for C=CC(=O)O from this test.
### Response inactive

### Prompt I'd appreciate the recorded outcome for CCCCC/C=C/C=C/C=O from this test.
### Response inactive

* * *

# Tested on: CCRIS mutagenicity, Ames/micronucleus/aberration tests
# method.notes: CCRIS mutagenicity studies
# assay.conditions: Test System: AMES SALMONELLA TYPHIMURIUM; Strain/Indicator: TA1537; Metabolic Activation: NONE; Method: STANDARD PLATE
# Excerpt: The CCRIS database contains chemical records with carcinogenicity, mutagenicity, tumor promotion, and tumor inhibition test results. It was developed by the National Cancer Institute (NCI). Data are derived from studies cited in primary journals, current awareness tools, NCI reports, and other sources. Test results have been reviewed by experts in carcinogenesis and mutagenesis. CCRIS provides historical information from the years 1985 - 2011. It is no longer updated. […]
Active and inactive are the calls of the source. The rule behind the calls is not given here.
Result category, one only: active, inactive

Check out these entries, answers already filled in.
O=S1(=O)OC(c2cc(Br)c(O)c(Br)c2)(c2cc(Br)c(O)c(Br)c2)c2ccccc21 | inactive
CN(C)CCNC(=O)c1cccc2c1Oc1ccccc1O2 | active
COc1cc(/C=C/C(=O)O[C@H]2CC[C@]34C[C@]35CC[C@]3(C)[C@@H]([C@H](C)CCC=C(C)C)CC[C@@]3(C)[C@@H]5CC[C@H]4C2(C)C)ccc1O | inactive
Cc1cc(O)c2c(c1O)C(=O)c1cc(O)cc(O)c1C2=O | inactive
COc1cc(O)c2c(c1)C(=O)c1c(O)c(C)cc(O)c1C2=O | inactive
C[Si](C)(C)N[Si](C)(C)C | inactive
CCOC(=O)[C@H]1O[C@@H]1C(=O)N[C@@H](CC(C)C)C(=O)NCCC(C)C | inactive
C[Si](Cl)(Cl)Cl | inactive

### Prompt I'd appreciate the recorded outcome for CC(=O)c1ccc(S(=O)(=O)NC(=O)NC2CCCCC2)cc1 from this test.
### Response inactive

### Prompt I'd appreciate the recorded outcome for BrC(Br)Br from this test.
### Response inactive

### Prompt I'd appreciate the recorded outcome for CCCCC/C=C/C=C/C=O from this test.
### Response inactive

* * *

# Test system: CCRIS mutagenicity, Ames/micronucleus/aberration tests
# method.notes: CCRIS mutagenicity studies
# assay.conditions: Test System: AMES SALMONELLA TYPHIMURIUM; Strain/Indicator: TA100; Metabolic Activation: NONE; Method: PREINCUBATION
Active and inactive are the calls of the source. No rule for the calls is given here.
Result category, one only: yes = active, no = inactive

Check out these entries, answers already filled in.
CC(=O)c1cc(NC(=O)NC(C)(C)C)ccc1OCC(O)CNC(C)(C)C (centres undefined) | no
O=C(O)CO.[NH2-].[NH2-].[Pt+2] | yes
c1ccc(OP(Oc2ccccc2)Oc2ccccc2)cc1 | no
Cc1cc2ccccc2c2ccc3c(c12)C=CC(=O)C3=O | yes
CCCCOC(=O)c1ccccc1C(=O)OCCCC | no
O=C(CBr)c1ccc(Br)cc1 | no

### Prompt I'd appreciate the recorded outcome for CC(=O)OC[C@]12C[C@H](OC(=O)CC(C)C)C(C)=C[C@H]1O[C@@H]1[C@H](O)[C@@H](OC(C)=O)[C@@]2(C)[C@]12CO2 from this test.
### Response no

### Prompt I'd appreciate the recorded outcome for CCC(C)[N+](=O)[O-] (centres undefined) from this test.
### Response no

### Prompt I'd appreciate the recorded outcome for O=[N+]([O-])C1CCCC1 from this test.
### Response no

### Prompt I'd appreciate the recorded outcome for Cc1c2ccccc2c(C)c2c3c(ccc12)C(=O)C(=O)C=C3 from this test.
### Response no

### Prompt I'd appreciate the recorded outcome for BrCC(Br)c1ccccc1 (centres undefined) from this test.
### Response yes

* * *

# System: CCRIS mutagenicity, Ames/micronucleus/aberration tests
# method.notes: CCRIS mutagenicity studies
# assay.conditions: Test System: AMES SALMONELLA TYPHIMURIUM; Strain/Indicator: TA98; Metabolic Activation: RAT LIVER S-9, AROCLOR 1254; Method: STANDARD PLATE
Calls of active or inactive are those of the source. How the calls were made is not given here.
Result category, one only: 1 = active, 0 = inactive

c1ccc2c(c1)oc1ccccc12 | 0
Cc1ccc(C)c2c1c1ccccc1n2C | 1

### Prompt I'd appreciate the recorded outcome for O=C(O)C1=NN(c2ccc(S(=O)(=O)O)cc2)C(=O)C1N=Nc1ccc(S(=O)(=O)O)cc1 (stereo not drawn) from this test.
### Response 0

### Prompt I'd appreciate the recorded outcome for C[Si](Cl)(Cl)Cl from this test.
### Response 0

### Prompt I'd appreciate the recorded outcome for Cn1c2ccccc2c2cc([N+](=O)[O-])ccc21 from this test.
### Response 1

### Prompt I'd appreciate the recorded outcome for CC1=C2C(=CO[C@H](C)[C@H]2C)C(=O)C(C(=O)O)=C1O from this test.
### Response 0

### Prompt I'd appreciate the recorded outcome for CC(=O)c1cc(C(C)(C)C)cc2c1CCC2(C)C from this test.
### Response 0

### Prompt I'd appreciate the recorded outcome for CC12CCC(CC1)C(C)(C)O2 from this test.
### Response 0

* * *

# System: CCRIS mutagenicity, Ames/micronucleus/aberration tests
# method.notes: CCRIS mutagenicity studies
# assay.conditions: Test System: AMES SALMONELLA TYPHIMURIUM; Strain/Indicator: TA100; Metabolic Activation: HAMSTER, LIVER, S-9, AROCLOR 1254 (10 OR 30%); Method: PREINCUBATION
Activity calls are given as the source filed them. The rule behind the calls is not given here.
Result category, one only: 1 (yes) (active), 0 (no) (inactive)

Check out these entries, answers already filled in.
CCC(=O)O | 0 (no)
CCCCCCCCCC[N+](C)(C)Cc1ccccc1 | 0 (no)
Cc1ccccc1C(N)=O | 0 (no)
CC(C)(C)OOC(C)(C)CCC(C)(C)OOC(C)(C)C | 0 (no)
CCO | 0 (no)
Cl[C@@H]1C2(Cl)C3C4[C@@H]5O[C@@H]5[C@H]5C3[C@@](Cl)(C2(Cl)Cl)[C@]1(Cl)[C@@H]45 (stereo partly specified) | 0 (no)
CN(Cc1cnc2nc(N)nc(N)c2n1)c1c(Cl)cc(C(=O)N[C@@H](CCC(=O)O)C(=O)O)cc1Cl | 0 (no)
NS(=O)(=O)c1cc2c(cc1Cl)NC=NS2(=O)=O | 0 (no)

Now turn to the next compound.
### Prompt I'd appreciate the recorded outcome for O=C(NO)c1ccccc1 from this test.
### Response 1 (yes)

* * *

# Test system: CCRIS mutagenicity, Ames/micronucleus/aberration tests
# method.notes: CCRIS mutagenicity studies
# assay.conditions: Test System: AMES SALMONELLA TYPHIMURIUM; Strain/Indicator: TA98; Metabolic Activation: RAT LIVER S-9, PHENOBARBITAL AND BETA-NAPHTHOFLAVONE; Method: PREINCUBATION
Activity calls are given as the source filed them. The rule behind the calls is not given here.
Result category, one only: active, inactive

Check out these entries, answers already filled in.
COc1cc(-c2ccc(N)c(OC)c2)ccc1N | active
Cc1ccc(S(=O)(=O)NN)cc1 | inactive
O=c1n(CC2CO2)c(=O)n(CC2CO2)c(=O)n1CC1CO1 (stereo not given) | active

### Prompt I'd appreciate the recorded outcome for CC1=CC(=C(c2ccc(N)cc2)c2ccc(N)cc2)C=CC1=N from this test.
### Response inactive

### Prompt I'd appreciate the recorded outcome for O=Cc1ccco1 from this test.
### Response inactive

### Prompt I'd appreciate the recorded outcome for C=CCOC(=O)c1ccccc1C(=O)OCC=C from this test.
### Response inactive

### Prompt I'd appreciate the recorded outcome for CC(C)Nc1ccc(Nc2ccccc2)cc1 from this test.
### Response inactive
